Where do these numbers come from? They come from patent US20250011288A1.

Record form. Attribute: pEC50. Fill in for each entry.
target: human RXFP1 (Homo sapiens); assay: human RXFP1 (hRXFP1) HEK293 cAMP assay (HTRF); settings: HEK293 cells stably expressing human RXFP1, 30 min at room temperature
Sequence (Q9HBX9 whole entry): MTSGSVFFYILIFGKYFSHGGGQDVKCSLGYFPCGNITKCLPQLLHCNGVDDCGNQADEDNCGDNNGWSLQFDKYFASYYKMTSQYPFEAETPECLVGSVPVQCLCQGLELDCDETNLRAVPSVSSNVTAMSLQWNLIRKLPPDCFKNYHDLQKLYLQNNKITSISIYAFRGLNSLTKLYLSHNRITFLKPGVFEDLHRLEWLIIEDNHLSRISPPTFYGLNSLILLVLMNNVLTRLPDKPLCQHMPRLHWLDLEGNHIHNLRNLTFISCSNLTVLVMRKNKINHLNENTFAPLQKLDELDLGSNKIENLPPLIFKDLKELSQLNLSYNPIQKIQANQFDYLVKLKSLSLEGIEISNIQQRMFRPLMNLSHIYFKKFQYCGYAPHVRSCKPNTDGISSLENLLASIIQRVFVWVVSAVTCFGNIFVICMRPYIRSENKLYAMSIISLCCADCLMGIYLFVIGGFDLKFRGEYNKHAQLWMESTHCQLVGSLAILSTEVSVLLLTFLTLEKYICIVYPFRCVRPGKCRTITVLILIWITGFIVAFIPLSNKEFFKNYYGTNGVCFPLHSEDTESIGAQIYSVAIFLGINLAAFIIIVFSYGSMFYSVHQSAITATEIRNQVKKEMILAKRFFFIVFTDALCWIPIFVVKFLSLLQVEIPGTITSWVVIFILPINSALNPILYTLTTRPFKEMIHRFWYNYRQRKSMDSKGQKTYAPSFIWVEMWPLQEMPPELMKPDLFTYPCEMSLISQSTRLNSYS
# reply with the number alone; pEC50 is -log10 of concentration in mol/L

Prompt line: # lookup: human RXFP1 (Homo sapiens) pEC50, key = COc1ncc(C2=NOC3CC(CO)CC23)cc1C(=O)N[C@H]1[C@@H](C(=O)N[C@H](C)C2(C)CC2)[C@H]2CC[C@@H]1/C2=C\C1CC1 (stereo partly shown)
Response line: 8.92

Prompt line: # lookup: human RXFP1 (Homo sapiens) pEC50, key = COCCN1CCc2cc(C(=O)N[C@@H]3C4CCC(/C4=C/C4CC4)[C@@H]3C(=O)Nc3ccc(F)c(C(F)(F)F)c3)c(OC)cc2C1 (stereo partly shown)
Response line: 5.33

Prompt line: # lookup: human RXFP1 (Homo sapiens) pEC50, key = CC1Cc2cc(C3=NOC4CC(O)CC34)cc(C(=O)N[C@H]3[C@@H](C(=O)Nc4ccc(F)c(C(F)(F)F)c4)[C@H]4CC[C@@H]3/C4=C\C3CC3)c2O1 (stereo partly shown)
Response line: 8.39

Prompt line: # lookup: human RXFP1 (Homo sapiens) pEC50, key = COc1cc2c(cc1C(=O)N[C@H]1[C@@H](C(=O)Nc3ccc(F)c(C(F)(F)F)c3)[C@H]3CC[C@@H]1/C3=C\C1CC1)CN(CC(C)(C)O)CC2
Response line: 6.70
